Molecular target: T1, BAFF-R (B-cell activating factor receptor) (human, UniProt Q96RJ3 1-76)
T1 sequence: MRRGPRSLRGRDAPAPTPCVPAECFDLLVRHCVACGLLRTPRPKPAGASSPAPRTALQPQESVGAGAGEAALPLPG
Test: EMSA
MEASURED ENDPOINT: Kd (nM)
Report the value in nM with no unit label.

Q. Reported Kd for R-1 aptamer (structured_RNA, 2'-F U and C) RNA: GGGAGGACGAUGCGGGAGGCUCAACAAUGAUAGAGCCCGCAAUGUUGAUAGUUGUGCCCAGUCUGCAGACGACUCGCCCGA : what is it?
A. 54
